Hey, just so you know, these numbers are from patent US20250282782A1.

assayed-target: human recombinant 6His-Nterm SHP2 full-length (Thr2-Arg593) (Homo sapiens (Human))
Sequence (Q06124 2-593): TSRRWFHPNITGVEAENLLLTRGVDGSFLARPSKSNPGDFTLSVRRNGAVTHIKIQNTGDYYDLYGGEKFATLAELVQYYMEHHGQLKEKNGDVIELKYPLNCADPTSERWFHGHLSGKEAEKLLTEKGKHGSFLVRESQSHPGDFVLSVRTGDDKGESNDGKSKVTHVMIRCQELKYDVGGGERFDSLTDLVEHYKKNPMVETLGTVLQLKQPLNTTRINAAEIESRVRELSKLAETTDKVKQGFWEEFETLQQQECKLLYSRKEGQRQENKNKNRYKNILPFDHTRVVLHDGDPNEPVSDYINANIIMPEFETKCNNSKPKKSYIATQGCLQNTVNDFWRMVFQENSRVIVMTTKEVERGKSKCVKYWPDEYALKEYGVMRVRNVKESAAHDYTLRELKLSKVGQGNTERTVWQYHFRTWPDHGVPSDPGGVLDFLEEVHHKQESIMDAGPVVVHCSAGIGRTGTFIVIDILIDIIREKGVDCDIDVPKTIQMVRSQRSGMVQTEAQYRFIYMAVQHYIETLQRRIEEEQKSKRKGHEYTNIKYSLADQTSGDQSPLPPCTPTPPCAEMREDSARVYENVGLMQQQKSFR
test: SHP2 phosphatase assay (DiFMUP substrate, activating peptide)
Assay type: biochemical
run-conditions: Table 11 summary
value-kind: pIC50
Please report pIC50 as the negative decimal logarithm of the molar concentration, giving only the number.

COc1cc2c(cn1)CC1(CCN(c3nc(C)c(-c4cnn(C)c4C)n4nccc34)CC1)[C@@H]2N ... 7.47

// moving on: another record for pIC50
Note pIC50 for the molecule shown: Cc1nc(N2CCC3(CC2)Cc2ccncc2[C@H]3N)c2ccnn2c1-c1cnn(C)c1C
7.68
